Test system: intracellular Leishmania donovani MHOM-ET-67/L82 amastigotes
Test: In vitro antiprotozoal assay, intracellular amastigotes
Assay type: cell-based
Conditions: Leishmania donovani; reference compound, L.don.InMac; read-out: IC50 Concurrent
experimentalReadout: IC50 (nM)

• CCCCCCCCCCCCCCCCOP(=O)([O-])OCC[N+](C)(C)C [Miltefosine, reference compound] = 162

====

Tested on: Staphylococcus aureus ATCC 43300, MRSA
Type: cell-based
Conditions: ATCC 43300, 18 h
Numbered stars: 1 amine (or outer) side, 2 acyl side, 3 side chain; on linkers, the order of the positions; unused ones are H or OH. Square brackets hold non-standard residues; d marks the D form. Peptide text beside a SMILES is read from it. * marks the point of attachment. X14 = COc1ccc(C[C@H](N[*:1])C(=O)[*:2])cc1Cl; NH(1-CH2NMe2-cBu) = CN(C)CC1(N*)CCC1; Benzoyl(4-F) = O=C(c1ccc(F)cc1)*; Aib = CC(C)(N)C(=O)O; βAla = NCCC(=O)O
experimentalReadout: MIC

* COc1ccc(C[C@H](NC(=O)[C@@H]2CCCN2C(=O)c2ccc(F)cc2)C(=O)N[C@@H](CC(C)C)C(=O)NC(C)(C)C(=O)N[C@@H](CC(C)C)C(=O)N[C@@H](CC(C)C)C(=O)NC(C)(C)C(=O)NC(C)(C)C(=O)NCCC(=O)NC2(CN(C)C)CCC2)cc1Cl [Compound 7846] ({Benzoyl(4-F)}-P[X14]L[Aib]LL[Aib][Aib][βAla]-{NH(1-CH2NMe2-cBu)}) | 4 µg/mL
